Catalogue of Emax values
measured.on: serotonin 5-HT2C receptor (VSV type isoform, stably expressed in CHO cells) (Homo sapiens, UniProt P28335, I156V/I160V/N158S)
Sequence (P28335 33-458 I156V/N158S/I160V limits assumed): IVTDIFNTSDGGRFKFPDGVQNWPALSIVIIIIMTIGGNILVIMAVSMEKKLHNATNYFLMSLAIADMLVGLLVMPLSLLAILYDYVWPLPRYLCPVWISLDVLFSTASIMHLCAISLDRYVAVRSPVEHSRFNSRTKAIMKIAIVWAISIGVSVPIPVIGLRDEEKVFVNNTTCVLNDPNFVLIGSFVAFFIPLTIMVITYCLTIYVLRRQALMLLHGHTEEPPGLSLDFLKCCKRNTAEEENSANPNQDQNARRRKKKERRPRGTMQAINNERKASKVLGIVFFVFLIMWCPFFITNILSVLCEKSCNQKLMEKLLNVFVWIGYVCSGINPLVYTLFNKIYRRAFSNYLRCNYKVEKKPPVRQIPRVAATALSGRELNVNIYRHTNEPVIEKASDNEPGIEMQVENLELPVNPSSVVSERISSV
experiment.description: cell-based
conditions.used: read-out: ratio (%) relative to maximum response by 5-HT (10 μM)
Counter-ions that a name gives are not always drawn.
Numbers only; they are read as %.

Consider the reported Emax for these compounds:
>>> print(df.to_string())
                                   compound  unit_text  recorded_number
0  CC(C)N1CC2CNCCc3cccc1c32 (stereo not shown) [Example 15, hydrochloride]          %               98
1  CC(C)N1C[C@@H]2CNCCc3ccc(Cl)c1c32 [Example 17, hydrochloride]          %               99
2  CCN1C[C@@H]2CNCCc3ccc(Cl)c1c32 [Example 29, hydrochloride]          %               93
3  CN1CC2CNCCc3ccc(Cl)c1c32 (stereo not shown) [Example 5, hydrochloride]          %              108
4  Clc1ccc2c3c1NCC3CNCC2 (stereo not shown)          %               98

Request: Name the reported Emax value associated with the compound c1cc2c3c(c[nH]c3c1)CNCC2 [Example 1, hydrochloride]
Result: 104

Request: What value of Emax has been reported for the following compound? CN1C[C@@H]2CNCCc3ccc(Cl)c1c32 [Example 9, hydrochloride]
Result: 109

Request: Need Emax of O=C(c1ccccc1)N1CC2CNCCc3cccc1c32 (stereo not shown) [Example 36, hydrochloride] , thanks.
Result: 79

Request: For O=C(c1ccccc1)N1CC2CNCCc3c(Cl)ccc1c32 (stereo not shown) [Example 38, hydrochloride] , what is its reported Emax?
Result: 93
